Let's look at some compounds and their measured relative viability.
Test system: NCI-H1792
experimental.protocol: relative viability (nuclei count vs DMSO), 5 days (fraction); higher = more cells survive
condition: first compound 0.02 µM
Respond numerically, and do not add a unit to the figure.

# compound, value.measured
data = [
    ("CCNC(=O)c1noc(-c2cc(C(C)C)c(O)cc2O)c1-c1ccc(CN2CCOCC2)cc1 [Luminespib] + CC(=O)Nc1cccc(-n2c(=O)n(C3CC3)c(=O)c3c(Nc4ccc(I)cc4F)n(C)c(=O)c(C)c32)c1 [Trametinib] (partner 0.02 µM)", 0.317),
]

// relative viability lookup, key: CN1CCN(CCOc2cc(OC3CCOCC3)c3c(Nc4c(Cl)ccc5c4OCO5)ncnc3c2)CC1 [Saracatinib] + Nc1nc2[nH]cc(CCc3ccc(C(=O)N[C@@H](CCC(=O)O)C(=O)O)cc3)c2c(=O)[nH]1 [Pemetrexed] (partner 0.2 µM) 1.06

* * *

System: LC-2-ad
experimental.protocol: relative viability (nuclei count vs DMSO), 5 days (fraction); higher = more cells survive
condition: first compound 0.8 µM
Hi! Could you tag entries with relative viability below 0.8 as Y, and those at or above as N? Much appreciated.

A selection of reference data follows.
# compound, class.assignment
data = [
    ("Nc1cccc2c1CN(C1CCC(=O)NC1=O)C2=O (stereo not given) [Lenalidomide] + CC(C)C[C@H](NC(=O)[C@H](Cc1ccccc1)NC(=O)c1cnccn1)B(O)O [Bortezomib] (partner 0.002 µM)", "N"),
    ("Nc1cccc2c1CN(C1CCC(=O)NC1=O)C2=O (stereo not given) [Lenalidomide] + Cc1nc(NC(=O)N2CCC[C@H]2C(N)=O)sc1-c1ccnc(C(C)(C)C(F)(F)F)c1 [Alpelisib] (partner 2 µM)", "N"),
    ("Nc1cccc2c1CN(C1CCC(=O)NC1=O)C2=O (stereo not given) [Lenalidomide] + CS(=O)(=O)CCNCc1ccc(-c2ccc3ncnc(Nc4ccc(OCc5cccc(F)c5)c(Cl)c4)c3c2)o1 [Lapatinib] (partner 2 µM)", "N"),
]

Turning now to a further compound:
I wonder whether Nc1cccc2c1CN(C1CCC(=O)NC1=O)C2=O (stereo not given) [Lenalidomide] + CC1(C)CCC(c2ccc(Cl)cc2)=C(CN2CCN(c3ccc(C(=O)NS(=O)(=O)c4ccc(N[C@H](CCN5CCOCC5)CSc5ccccc5)c(S(=O)(=O)C(F)(F)F)c4)cc3)CC2)C1 [Navitoclax] (partner 0.5 µM) has relative viability below 0.8. Can you tell? Y

* * *

Tested on: HCC-78
experimental.protocol: relative viability (nuclei count vs DMSO), 5 days (fraction); higher = more cells survive
condition: first compound 0.2 µM
readout: relative viability
Respond numerically, and do not add a unit to the figure.

# compound, system, relative viability
measured = [
    ("Cc1csc(=NC2CCCCC2)n1/N=C/c1ccc(O)c(O)c1O [MIM1] + CC(=O)c1c(C)c2cnc(Nc3ccc(N4CCNCC4)cn3)nc2n(C2CCCC2)c1=O [Palbociclib] (partner 0.5 µM)", "HCC-78", 0.463),
    ("CCNC(=O)c1noc(-c2cc(C(C)C)c(O)cc2O)c1-c1ccc(CN2CCOCC2)cc1 [Luminespib] + Cc1nc(NC(=O)N2CCC[C@H]2C(N)=O)sc1-c1ccnc(C(C)(C)C(F)(F)F)c1 [Alpelisib] (partner 2 µM)", "HCC-78", 0.216),
    ("CN1CCN(CCOc2cc(OC3CCOCC3)c3c(Nc4c(Cl)ccc5c4OCO5)ncnc3c2)CC1 [Saracatinib] + CS(=O)(=O)N1CCN(Cc2cc3nc(-c4cccc5[nH]ncc45)nc(N4CCOCC4)c3s2)CC1 [Pictilisib] (partner 1 µM)", "HCC-78", 0.154),
    ("Cc1csc(=NC2CCCCC2)n1/N=C/c1ccc(O)c(O)c1O [MIM1] + N=C(N)NC(=N)NCCc1ccccc1 [Phenformin] (partner 250 µM)", "HCC-78", 0.81),
    ("CN1CCN(CCOc2cc(OC3CCOCC3)c3c(Nc4c(Cl)ccc5c4OCO5)ncnc3c2)CC1 [Saracatinib] + CC(C)C[C@H](NC(=O)[C@H](Cc1ccccc1)NC(=O)c1cnccn1)B(O)O [Bortezomib] (partner 0.002 µM)", "HCC-78", 0.513),
]

# evaluate next
// relative viability lookup, key: CCNC(=O)c1noc(-c2cc(C(C)C)c(O)cc2O)c1-c1ccc(CN2CCOCC2)cc1 [Luminespib] + Nc1nc2[nH]cc(CCc3ccc(C(=O)N[C@@H](CCC(=O)O)C(=O)O)cc3)c2c(=O)[nH]1 [Pemetrexed] (partner 0.2 µM) 0.858
